tested on: CCRF-CEM leukemia; assay: NCI-60 one-dose screen, 48 h (100 = growth as untreated, 0 = no growth, -100 = all killed); settings: 10 µM unless noted
About 83,000 compounds went through this panel and 20% of them were active in at least one assay; those are over-represented in the sample as a whole.
// growth lookup, one value per entry
The response must be a number in % with no trailing unit.

Worked cases, growth given:
{"COMPOUND": "O=C(N/N=C/c1ccc(Cl)cc1)c1[nH]c2ccc(Cl)cc2c1-c1ccccc1", "DATA_VALUE": 19.3}
{"COMPOUND": "O=C(/C=C/c1cccc(Cl)c1)c1ccc(Nc2nc(Nc3ccc(F)cc3)nc(Nc3ccc(Cl)cc3)n2)cc1", "DATA_VALUE": 103}
{"COMPOUND": "CCc1ccc(CCCC(=O)O)cc1", "DATA_VALUE": 104}
{"COMPOUND": "COc1ccc(/C=N/C2=C(C#N)C(c3ccccc3)c3ccc4ccccc4c3O2)cc1 (stereo not given)", "DATA_VALUE": 9.58}

Please look at the following compound next.
Would you mind telling me what growth value was observed for O=C(/C=C/c1ccccc1)Nc1ncc(Cc2ccccc2Cl)s1 ?
15.9

====

tested on: MOLT-4 leukemia; assay: NCI-60 one-dose screen, 48 h; details: 10 µM unless noted
The panel holds about 83,000 compounds, 20% with a hit somewhere; the sample as a whole holds those more often. Calls of active or inactive are those of the source. Rule for the calls: active = growth percent below 10; inactive = the rest.
Write down one outcome, taken from active, inactive

For this compound, state the assay outcome: N#Cc1nc(-c2ccccc2)oc1S(=O)(=O)N1CCN(c2ccccc2)CC1
inactive

For this compound, state the assay outcome: CC(=O)c1c(C)nc2ccccc2c1/C=C/c1ccc(F)cc1
inactive

For this compound, state the assay outcome: COc1ccc(C/C(C)=C(\c2ccc(Cl)cc2)c2ccc(OCCN3CCCCC3)cc2)cc1
inactive

For this compound, state the assay outcome: CC1CN(S(=O)(=O)c2oc(-c3ccc(Cl)cc3)nc2C#N)CC(C)O1 (stereo not given)
active

For this compound, state the assay outcome: CCOC(=O)c1c2c(n3cccc(F)c13)C(=O)c1ncccc1C2=O
inactive

====

test system: T-47D breast; assay: NCI-60 one-dose screen, 48 h (100 = growth as untreated, 0 = no growth, -100 = all killed); settings: 10 µM unless noted
The panel holds about 83,000 compounds, 20% with a hit somewhere; the sample as a whole holds those more often.
// growth lookup, one value per entry
The response must be a number in % with no trailing unit.

Worked cases, growth given:
{"COMPOUND": "CC(C)COc1nc2c(c(=O)n(C)c(=O)n2C)n1C", "EXPERIMENTAL_READOUT": "growth", "DATA_VALUE": 88.6}
{"COMPOUND": "CCOC(=O)c1csc(NC(=O)COc2ccc(/C=C3\\Oc4ccccc4C3=O)cc2)n1", "EXPERIMENTAL_READOUT": "growth", "DATA_VALUE": 97.5}
{"COMPOUND": "COc1ccc(C(=O)N2c3ccccc3Sc3ccccc32)c(OC)c1", "EXPERIMENTAL_READOUT": "growth", "DATA_VALUE": 41.5}
{"COMPOUND": "OB1OCc2cc(/C=C/c3cccc(C(F)(F)F)c3)ccc21", "EXPERIMENTAL_READOUT": "growth", "DATA_VALUE": 20.4}
{"COMPOUND": "COc1ccc2[nH]c(C(=O)N3CCN(C(=O)OCc4ccc5c(Cl)cc(Cl)c(O)c5n4)CC3)cc2c1", "EXPERIMENTAL_READOUT": "growth", "DATA_VALUE": -57.5}
{"COMPOUND": "Cc1cn(-c2cc(NC(=O)c3cncc(C#Cc4cnc(N)c5ncccc45)c3)cc(C(F)(F)F)c2)cn1", "EXPERIMENTAL_READOUT": "growth", "DATA_VALUE": 83.6}

Would you mind telling me what growth value was observed for COc1ccc(NC2=C(I)C(=O)c3ncccc3C2=O)cc1 ?
-32.7

Would you mind telling me what growth value was observed for CCOc1nc(-c2ccccc2)cc2c(O)c(C(=O)N/N=C/c3ccccc3)[nH]c(=O)c12 ?
110

Would you mind telling me what growth value was observed for CC(=O)N1N=C(c2ccc(Nc3nc(Nc4ccccc4)nc(Nc4ccccc4)n3)cc2)CC1c1ccccc1 (stereo not given) ?
46.5

Would you mind telling me what growth value was observed for N#Cc1c(-c2ccc(Cl)cc2)c(C#N)c2c(C#N)c(N)nn2c1N ?
57

====

// growth lookup, one value per entry
test system: SW-620 colon; assay: NCI-60 one-dose screen, 48 h (100 = growth as untreated, 0 = no growth, -100 = all killed); conditions: 10 µM unless noted
About 83,000 compounds went through this panel and 20% of them were active in at least one assay; those are over-represented in the sample as a whole. Active and inactive are the calls of the source. Rule for the calls: active = growth percent below 10; inactive = the rest.

{"COMPOUND": "NC(=O)C(=O)c1ccccc1NC=O", "DATA_VALUE": "101% (inactive)"}

Return growth measured with SW-620 colon given this compound: CN(C)CC(C)(C)C(=O)/C=C/c1ccccc1
-59.1% [25 µM] (active)

Return growth measured with SW-620 colon given this compound: CN1C(=O)/C(=C\c2c(Cl)cccc2Cl)c2ccccc21
66.3% (inactive)

====

test system: MOLT-4 leukemia; assay: NCI-60 one-dose screen, 48 h (100 = growth as untreated, 0 = no growth, -100 = all killed); details: 10 µM unless noted
The panel holds about 83,000 compounds, 20% with a hit somewhere; the sample as a whole holds those more often.
EXPERIMENTAL_READOUT: growth (%)
The response must be a number in % with no trailing unit.

Worked cases, growth given:
{"MOLECULE": "Fc1ccc(CNc2c3ccccc3nc3ccccc23)c(F)c1", "EXPERIMENTAL_READOUT": "growth", "DATA_VALUE": 23.8}
{"MOLECULE": "CCOC(=O)c1cc(C(=O)c2cc(OC)c(OC)c(OC)c2)n2ncccc12", "EXPERIMENTAL_READOUT": "growth", "DATA_VALUE": 18.5}
{"MOLECULE": "COc1cc2oc(-c3cccc(NC(=O)c4ccccc4)c3)cc(=O)c2c(OC)c1OC", "EXPERIMENTAL_READOUT": "growth", "DATA_VALUE": 40.7}
{"MOLECULE": "Cc1cc(N2CCN(CC(=O)Nc3ccc4c(ccn4C)c3)CC2)nc(N2CCCCCC2)n1", "EXPERIMENTAL_READOUT": "growth", "DATA_VALUE": 85.3}
{"MOLECULE": "O=C(Nc1nc(-c2ccc(Cl)cc2)nc2c1sc(=S)n2-c1ccccc1)C(F)(F)F", "EXPERIMENTAL_READOUT": "growth", "DATA_VALUE": 82.6}

Would you mind telling me what growth value was observed for COc1cc2ncnc(Nc3ccc(S(=O)(=O)Nc4cc(C)on4)cc3)c2cc1OCCCN1CCN(c2ccc(F)cc2)CC1 ?
102

Would you mind telling me what growth value was observed for CSc1nc2ccccc2cc1/C=C1/C=C(c2ccccc2)NC1=O ?
36.3

Would you mind telling me what growth value was observed for COC(=O)c1cc(N=C2NC(=O)/C(=C/C=C/c3ccccc3)S2)ccc1O ?
31.7

Would you mind telling me what growth value was observed for Cc1cc(C)c2c(c1)N(C)c1ncnc(-n3cnc4cc(C)ccc43)c1CC2C (stereo not given) ?
12.7

Would you mind telling me what growth value was observed for COc1ccc(/C=C(\C#N)n2nnc3cc(Cl)ccc32)cc1 ?
14.2

Would you mind telling me what growth value was observed for COc1ccc(/C=N/C2=C(C#N)C(c3ccccc3)c3ccc4ccccc4c3O2)cc1 (stereo not given) ?
19.2

Would you mind telling me what growth value was observed for CCC(=O)Oc1ccc(-c2ccccc2)cc1Br ?
111

Would you mind telling me what growth value was observed for O=C(/C=C/c1cccc(Cl)c1)c1cccc(OCCCOc2cccc(C(=O)/C=C/c3cccc(Cl)c3)c2)c1 ?
96.9

Would you mind telling me what growth value was observed for CN(c1cc2ncc(=O)[nH]c2cc1NC(N)=NCc1ccc(Cl)cc1)C1CCCCC1 ?
35.5

Would you mind telling me what growth value was observed for CCN1C(=S)N(c2ccccc2)C2NC(=S)N(/N=C/C=C/c3ccccc3OC)C21 (stereo not given) ?
9.49

Would you mind telling me what growth value was observed for O=C(Nn1c2c(sc1=NC1CC1)C(=O)c1ccccc1C2=O)c1cc2ccc1CCc1ccc(cc1)CC2 ?
8.53

Would you mind telling me what growth value was observed for N#CSc1c[nH]c2cccc(/C=C/C(=O)/C=C(/C=C/c3cccc4[nH]cc(SC#N)c34)OB(F)F)c12 ?
-14.4

====

system: COLO 205 colon; assay: NCI-60 one-dose screen, 48 h (100 = growth as untreated, 0 = no growth, -100 = all killed); conditions: 10 µM unless noted
This is part of a sample that, as a whole, favours compounds with a hit. Of some 83,000 tested, about 20% had one in any assay. Active and inactive are the calls of the source. The calls were made as follows: active = growth percent below 10; inactive = the rest.
EXPERIMENTAL_READOUT: growth

Worked cases, growth given:
{"COMPOUND": "CC1=NC2=Nn3c(c4cnn(-c5ccccc5)c4n/c3=N\\N)NN2C(c2ccccc2)=C1", "growth": "107% (inactive)"}
{"COMPOUND": "Oc1c(Br)cc(Br)c2ccc(Cn3cc(-c4ccc(C(F)(F)F)cc4)nn3)nc12", "growth": "59.7% (inactive)"}
{"COMPOUND": "O=C(Nc1ccc(Oc2cccc(Cl)c2)c(Cl)c1)c1cccnc1", "growth": "15.4% (inactive)"}
{"COMPOUND": "COC(=O)CC[C@H](C)[C@H]1CC[C@H]2[C@@H]3CC[C@@H]4CC5(CC[C@]4(C)[C@H]3CC(=O)[C@]12C)Nc1ccccc1NC5=NC(C)(C)C (stereo not given in full)", "growth": "66.4% (inactive)"}
{"COMPOUND": "O=C1Nc2ccc(C(=O)O)cc2/C1=N/c1nnc(Sc2ccccc2)s1", "growth": "124% (inactive)"}

Would you mind telling me what growth value was observed for O=C(Nc1cccc(-c2ccc(N3CCOCC3)nn2)c1)Nc1cccc(C(F)(F)F)c1 ?
81% (inactive)

Would you mind telling me what growth value was observed for N#CSc1c[nH]c2cccc(/C=C/C(=O)/C=C(/C=C/c3cccc4[nH]cc(SC#N)c34)OB(F)F)c12 ?
-60% (active)

Would you mind telling me what growth value was observed for C#CCOc1cccc(Nc2ncnc3cc(NC(=O)C=C)ccc23)c1 ?
17.3% (inactive)

Would you mind telling me what growth value was observed for COc1ccc(C(=O)N2c3ccccc3Sc3ccccc32)c(OC)c1 ?
-11.4% (active)

Would you mind telling me what growth value was observed for CCO/C=N/C1=C(C#N)C(c2ccc(Cl)cc2)c2sc3c(F)cccc3c2O1 (stereo not given) ?
95.7% (inactive)
